Origin of the recorded values: paper PMC9929631

subject_of_test: DDB1‐DCAF12 (Homo sapiens, UniProt Q16531+Q5T6F0)
Sequence (Q5T6F0 whole entry): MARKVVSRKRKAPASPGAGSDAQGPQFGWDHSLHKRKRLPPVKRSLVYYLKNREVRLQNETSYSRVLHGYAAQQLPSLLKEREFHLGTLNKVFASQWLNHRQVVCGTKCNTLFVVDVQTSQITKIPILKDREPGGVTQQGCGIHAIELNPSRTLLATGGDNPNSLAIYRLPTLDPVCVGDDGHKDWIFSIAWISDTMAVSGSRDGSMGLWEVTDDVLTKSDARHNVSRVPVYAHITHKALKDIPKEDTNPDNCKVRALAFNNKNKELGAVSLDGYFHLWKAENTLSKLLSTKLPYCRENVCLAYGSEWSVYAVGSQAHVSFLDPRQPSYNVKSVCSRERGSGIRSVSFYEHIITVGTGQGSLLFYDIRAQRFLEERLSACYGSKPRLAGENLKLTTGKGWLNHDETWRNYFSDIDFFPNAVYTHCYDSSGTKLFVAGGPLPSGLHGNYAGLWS
Sequence (Q16531 whole entry partner): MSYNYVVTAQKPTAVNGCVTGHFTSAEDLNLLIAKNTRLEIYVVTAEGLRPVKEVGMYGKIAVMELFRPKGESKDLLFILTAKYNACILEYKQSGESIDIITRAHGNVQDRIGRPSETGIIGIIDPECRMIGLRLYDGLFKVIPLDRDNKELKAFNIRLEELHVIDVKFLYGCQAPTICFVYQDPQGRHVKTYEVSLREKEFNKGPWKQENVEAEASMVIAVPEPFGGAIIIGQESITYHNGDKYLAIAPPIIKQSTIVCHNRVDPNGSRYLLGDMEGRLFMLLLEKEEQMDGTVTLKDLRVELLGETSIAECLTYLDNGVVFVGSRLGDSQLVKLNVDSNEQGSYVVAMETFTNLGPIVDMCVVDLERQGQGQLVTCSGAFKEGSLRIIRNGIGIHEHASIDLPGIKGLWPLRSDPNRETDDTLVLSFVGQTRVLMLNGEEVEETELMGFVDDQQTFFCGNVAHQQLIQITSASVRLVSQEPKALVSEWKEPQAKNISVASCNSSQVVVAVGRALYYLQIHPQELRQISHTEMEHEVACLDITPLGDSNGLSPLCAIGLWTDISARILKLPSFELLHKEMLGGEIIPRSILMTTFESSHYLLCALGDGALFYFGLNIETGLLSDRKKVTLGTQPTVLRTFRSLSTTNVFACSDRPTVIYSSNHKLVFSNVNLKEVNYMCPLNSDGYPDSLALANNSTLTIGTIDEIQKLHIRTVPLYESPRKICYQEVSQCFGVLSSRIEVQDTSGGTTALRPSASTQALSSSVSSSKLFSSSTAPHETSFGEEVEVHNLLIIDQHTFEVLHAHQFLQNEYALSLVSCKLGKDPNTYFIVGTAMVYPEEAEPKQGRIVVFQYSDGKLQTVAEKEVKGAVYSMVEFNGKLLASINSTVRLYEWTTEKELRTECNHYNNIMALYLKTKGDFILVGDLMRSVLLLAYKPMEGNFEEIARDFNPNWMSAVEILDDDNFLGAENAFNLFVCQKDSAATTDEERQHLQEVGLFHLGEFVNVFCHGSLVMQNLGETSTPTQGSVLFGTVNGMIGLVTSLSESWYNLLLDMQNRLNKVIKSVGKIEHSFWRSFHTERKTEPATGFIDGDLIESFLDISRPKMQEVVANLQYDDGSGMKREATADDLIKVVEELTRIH
protocol: TR-FRET competition assay
Type: binding
pIC50: −log10 of the molar value. Ends that are not written are not given here.
measured_quantity: pIC50

> print(dat)
                    sequence.data  reading
1       DIRAPGESEE [CCT510 K535A]     6.68
2       DIRKAGESEE [CCT510 P536A]     6.38
3       DARKPGESEE [CCT510 I533A]     6.68
4       DIRKPGASEE [CCT510 E538A]     6.24
5       DIRKPGEAEE [CCT510 S539A]     6.90
6            DIRKPGESEE [CCT5_10]     6.44
7       AIRKPGESEE [CCT510 D532A]     6.65
8  EGWRLFKIDKEYLLKMATEE [SAT1_20]     6.54
9       DIAKPGESEE [CCT510 R534A]     6.40

---

subject_of_test: DDB1‐DCAF12 (Homo sapiens, UniProt Q16531+Q5T6F0)
protocol: TR-FRET competition assay
Format: binding
experimental_conditions: IC50; TR-FRET competition against TbDDB1-DCAF12^488; n = 3
pIC50: −log10 of the molar value. Ends that are not written are not given here.
measured_quantity: pIC50

> print(dat)
               sequence.data  reading
1  DIRKPGESAE [CCT510 E540A]   < 4.30
